Every entry's value here was drawn from patent US20030220243A1.

Biological target: GLP-1 receptor
Assay: cell-based or functional assay
PROPERTY_LABEL: GLP-1 Receptor Activation

Q. Assign GLP-1 Receptor Activation to the following record: HVEGTFTSDVSSYLEDQAAKEFIAWLVKGRG [Val^8-Asp^22-GLP-1(7-37)OH]
A. 0.4 relative to GLP-1(7-37)OH

Q. Assign GLP-1 Receptor Activation to the following record: HVEGTFTSDVSSYLEHQAAKEFIAWLVKGRG [Val^8-His^22-GLP-1(7-37)OH]
A. 0.14 relative to GLP-1(7-37)OH

Q. Assign GLP-1 Receptor Activation to the following record: HVEGTFTSDVSSYLEGQAAKEFIAWLKVGRG [Val^8-Lys^33-Val^34-GLP-1(7-37)OH]
A. 0.08 relative to GLP-1(7-37)OH

Q. Assign GLP-1 Receptor Activation to the following record: HVEGTFTSDVSSYLEKQAAKEFIAWLVKGRG [Val^8-Lys^22-GLP-1(7-37)OH]
A. 0.58 relative to GLP-1(7-37)OH

Q. Assign GLP-1 Receptor Activation to the following record: HVEGKFTSDVSSYLEGQAAKEFIAWLVKGRG [Val^8-Lys^11-GLP-1(7-37)OH]
A. 0.001 relative to GLP-1(7-37)OH

Q. Assign GLP-1 Receptor Activation to the following record: HVEGTFTSDVSSYLEPQAAKEFIAWLVKGRG [Val^8-Pro^22-GLP-1(7-37)OH]
A. 0.01 relative to GLP-1(7-37)OH

Q. Assign GLP-1 Receptor Activation to the following record: HVEGAFTSDVSSYLEGQAAKEFIAWLVKGRG [Val^8-Ala^11-GLP-1(7-37)OH]
A. 0.021 relative to GLP-1(7-37)OH

Q. Assign GLP-1 Receptor Activation to the following record: HVEGTFTSDVSSYLEGQAAKEFIAWLVKERG [Val^8-Glu^35-GLP-1(7-37)OH]
A. 0.15 relative to GLP-1(7-37)OH

Q. Assign GLP-1 Receptor Activation to the following record: HVEGTFTSDVSSYLEGQKAKEFIAWLVKGRG [Val^8-Lys^24-GLP-1(7-37)OH]
A. 0.02 relative to GLP-1(7-37)OH

Q. Assign GLP-1 Receptor Activation to the following record: HVEGTFTSDASSYLEGQAAKEFIAWLVKGRG [Val^8-Ala^16-GLP-1(7-37)OH]
A. 0.112 relative to GLP-1(7-37)OH

Q. Assign GLP-1 Receptor Activation to the following record: HVEGTFTSDESSYLEGQAAKEFIAWLVKGRG [Val^8-Glu^16-GLP-1(7-37)OH]
A. 0.047 relative to GLP-1(7-37)OH

Q. Assign GLP-1 Receptor Activation to the following record: HVEGTFTSDVSSYLEGQAAKEFIAWLGKGRG [Val^8-Gly^33-GLP-1(7-37)OH]
A. 0.01 relative to GLP-1(7-37)OH

Q. Assign GLP-1 Receptor Activation to the following record: HVEGTFTSDVSSYLESQAAKEFIAWLVKGRG [Val^8-Ser^22-GLP-1(7-37)OH]
A. 0.5 relative to GLP-1(7-37)OH

Q. Assign GLP-1 Receptor Activation to the following record: HVEGTFTSDVSSYLEGQAAKEFIAWLVKGHG [Val^8-His^36-GLP-1(7-37)OH]
A. 0.22 relative to GLP-1(7-37)OH
